// data source = patent US8541585B2

# inhibition at 0.1 µM per entry
Target: human α1D receptor (Homo sapiens)
Construct: expressed in transfected cells; host or cells: CHO cells (membrane preparation)
Sequence (P25100 whole entry): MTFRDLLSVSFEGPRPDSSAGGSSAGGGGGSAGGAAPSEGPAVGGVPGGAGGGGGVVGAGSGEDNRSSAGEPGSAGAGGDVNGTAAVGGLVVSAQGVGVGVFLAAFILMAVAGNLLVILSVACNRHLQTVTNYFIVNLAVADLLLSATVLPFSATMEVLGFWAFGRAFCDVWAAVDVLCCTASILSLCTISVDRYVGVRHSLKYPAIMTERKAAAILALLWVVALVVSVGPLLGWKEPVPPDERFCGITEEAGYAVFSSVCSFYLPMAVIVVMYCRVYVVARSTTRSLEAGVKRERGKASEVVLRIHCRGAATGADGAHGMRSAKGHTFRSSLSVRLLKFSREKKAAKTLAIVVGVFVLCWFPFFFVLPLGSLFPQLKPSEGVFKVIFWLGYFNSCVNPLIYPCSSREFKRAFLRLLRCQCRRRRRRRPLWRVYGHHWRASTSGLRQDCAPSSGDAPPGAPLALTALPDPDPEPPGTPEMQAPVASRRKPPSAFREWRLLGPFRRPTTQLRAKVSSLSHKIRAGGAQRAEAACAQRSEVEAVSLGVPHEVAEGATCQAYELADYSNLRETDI
Test: Adrenaline α1D receptor binding assay ([3H]-prazosin)
Conditions: 100 nM test drug; [3H]-prazosin 0.6 nM; human α1D receptor-expressing CHO cell membrane; read-out: BINDING INHIBITION RATE (%) α1D 100 nM
Field: numeric (%). Do not append units.

CC(C)c1ccc2cc(C(=O)N3CCC[C@H]3CCN3CCC(C(=O)c4ccc(F)cc4)CC3)[nH]c2c1 = 66
Cc1cccc2cc(C(=O)N3CCC[C@H]3CCN3CCC(C(=O)c4ccc(F)cc4)CC3)[nH]c12 = 29
O=C(/C=C/c1ccc2c(c1)OCO2)N1CCC[C@H](CN2CCC(c3c[nH]c4ccccc34)CC2)C1 = 93
O=C(c1ccc(F)cc1)C1CCN(CC[C@@H]2CCCN2C(=O)c2[nH]c3cc(F)ccc3c2F)CC1 = 48
O=C(c1cccc(-c2ccccc2)c1)N1CCC[C@@H](CCN2CCN(c3nsc4ccccc34)CC2)C1 = 76
Cc1ccc2cc(C(=O)N3CCC[C@H]3CCN3CCC(N4CCCc5ccccc54)CC3)[nH]c2c1 = 43

// switching to the query compound
Quick check: inhibition at 0.1 µM of Cc1cc2c3c(c1)cc(C(=O)N1CCC[C@H]1CCN1CCC(C(=O)c4ccc(F)cc4)CC1)n3CCC2=O ?
54

====

Biological target: human 5-HT6 receptor (Homo sapiens)
Construct: expressed in transfected cells; host or cells: CHO cells (membrane preparation)
Sequence (P50406 whole entry): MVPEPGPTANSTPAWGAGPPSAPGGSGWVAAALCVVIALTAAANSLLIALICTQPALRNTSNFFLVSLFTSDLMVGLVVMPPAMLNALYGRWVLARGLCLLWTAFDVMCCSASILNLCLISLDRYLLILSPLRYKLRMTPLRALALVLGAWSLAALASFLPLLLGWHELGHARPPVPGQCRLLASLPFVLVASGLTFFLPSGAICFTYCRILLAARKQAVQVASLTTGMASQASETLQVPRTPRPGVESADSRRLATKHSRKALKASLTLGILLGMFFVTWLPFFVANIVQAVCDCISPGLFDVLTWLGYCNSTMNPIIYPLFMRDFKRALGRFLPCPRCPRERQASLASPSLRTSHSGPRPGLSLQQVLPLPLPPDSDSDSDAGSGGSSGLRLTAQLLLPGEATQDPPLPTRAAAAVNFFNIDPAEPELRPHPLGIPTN
Experiment: Serotonin 5-HT6 receptor binding assay ([3H]-clozapine)
Conditions: 100 nM test drug; [3H]-clozapine 2 nM; human 5-HT6 receptor-expressing CHO cell membrane; read-out: BINDING INHIBITION RATE (%) 5HT6 100 nM
# inhibition at 0.1 µM per entry
Field: numeric (%). Do not append units.

O=C(c1ccc(F)cc1)C1CCN(CC[C@@H]2CCCN2C(=O)c2[nH]c3ccccc3c2C(=O)N2CCCCC2)CC1 [Example 54] = 81
N#CCCc1ccc2c(Cl)c(C(=O)N3CCC[C@H]3CCN3CCC(C(=O)c4ccc(F)cc4)CC3)[nH]c2c1 [Example 55] = 100
Cc1ccc2cc(C(=O)N3CCC[C@H]3CCN3CCC(C(=O)c4ccc(F)cc4)CC3)[nH]c2c1 [Example 1] = 96
COc1ccc2cc(C(=O)N3CC[C@H]3CCN3CCC(c4c[nH]c5ccccc45)CC3)[nH]c2c1 [Example 32] = 97

Quick check: inhibition at 0.1 µM of Cc1ccc2cc(C(=O)N3CCC[C@H]3CCN3CCN(c4n[nH]c5cc(F)ccc45)CC3)[nH]c2c1 [Example 24] ?
98

Quick check: inhibition at 0.1 µM of Cc1cccc2cc(C(=O)N3CCC[C@H]3CCN3CCC(C(=O)c4ccc(F)cc4)CC3)[nH]c12 [Example 61] ?
82

Quick check: inhibition at 0.1 µM of C[C@H]1CC[C@@H](CCN2CCC(C(=O)c3ccc(F)cc3)CC2)N1C(=O)c1cc2ccc(C(F)(F)F)cc2[nH]1 [Example 167] ?
95

====

Molecular target: human D2L receptor (Homo sapiens, UniProt P14416)
Sequence (P14416 whole entry): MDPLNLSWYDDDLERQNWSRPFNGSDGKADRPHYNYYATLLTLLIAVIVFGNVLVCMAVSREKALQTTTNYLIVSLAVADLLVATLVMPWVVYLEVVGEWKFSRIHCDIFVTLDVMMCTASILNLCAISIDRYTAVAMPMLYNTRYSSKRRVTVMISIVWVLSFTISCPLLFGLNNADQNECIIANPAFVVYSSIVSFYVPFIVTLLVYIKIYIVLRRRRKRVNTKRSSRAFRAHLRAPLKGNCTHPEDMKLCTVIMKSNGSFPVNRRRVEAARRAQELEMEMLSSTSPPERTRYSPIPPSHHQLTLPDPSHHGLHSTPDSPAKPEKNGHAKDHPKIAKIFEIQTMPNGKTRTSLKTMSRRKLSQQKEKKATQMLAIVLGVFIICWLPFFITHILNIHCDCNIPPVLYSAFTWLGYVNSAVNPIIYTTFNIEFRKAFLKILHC
Assay: Dopamine D2L receptor binding assay ([3H]-spiperone)
Settings: 10 nM test drug; [3H]-spiperone 0.5 nM; human D2L receptor-expressing CHO cell membrane; read-out: BINDING INHIBITION RATE (%) D2L 10 nM
Procedure: (1) Dopamine D2L Receptor Binding Assay D2L receptor binding assay was performed in reference to a method described by Hirose et al. (Japan. J. Pharmacol., 53, 321-329, 1990). After a reaction in a total volume of 200 μL of 50 mM Tris-HCl (pH=7.6) buffer solution containing 50 μL of [^3H]-spiperone (final concentration 0.5 nM), 1 μL of test drug in DMSO, and 149 μL of human D2L receptor-expressing CHO cell membrane sample, human D2L receptor binding activity of [^3H]-spiperone was measured. […]
# inhibition at 0.01 µM per entry
Field: numeric (%). Do not append units.

Quick check: inhibition at 0.01 µM of Cc1ccc2[nH]c(C(=O)N3CCOC[C@H]3CCN3CCC(c4coc5ccccc45)CC3)cc2c1 ?
87

Quick check: inhibition at 0.01 µM of O=C(c1ccc(F)cc1)C1CCN(CC[C@@H]2CCCN2C(=O)c2cc3ccccc3n2C2CCOCC2)CC1 ?
82

Quick check: inhibition at 0.01 µM of CCOCCO[C@@H]1C[C@@H](CCN2CCC(c3c[nH]c4ccccc34)CC2)N(C(=O)c2cc3ccc(OC)cc3[nH]2)C1 ?
0

Quick check: inhibition at 0.01 µM of CC(=O)Nc1cccc2cc(C(=O)N3CCC[C@H]3CCN3CCC(C(=O)c4ccc(F)cc4)CC3)n(C)c12 ?
0

====

Target: human D2L receptor (Homo sapiens)
Test: Dopamine D2L receptor binding assay ([3H]-spiperone)
Conditions: 10 nM test drug; [3H]-spiperone 0.5 nM; human D2L receptor-expressing CHO cell membrane; read-out: BINDING INHIBITION RATE (%) D2L 10 nM
Outcome: 1 (yes) for inhibition at 0.01 µM of at least 80%; 0 (no) for anything lower.

Cc1ccc2cc(C(=O)N3CCC[C@H]3CCN3CCN(c4n[nH]c5ccccc45)CC3)[nH]c2c1 = 0 (no)

Could you tell me if the measured inhibition at 0.01 µM of O=C(c1ccc(F)cc1)C1CCN(CC[C@@H]2CCCN2C(=O)c2[nH]c3ccccc3c2-c2ccccc2)CC1 reaches 80% or more?
0 (no)

Could you tell me if the measured inhibition at 0.01 µM of Cc1ccc2cc(C(=O)N3[C@H](CCN4CCC(C(=O)c5ccc(F)cc5)CC4)CC[C@@H]3C)[nH]c2c1 reaches 80% or more?
1 (yes)

Could you tell me if the measured inhibition at 0.01 µM of Cc1ccc2cc(C(=O)N3CCC[C@H]3CCN3CCC(c4c[nH]c5cc(F)ccc45)CC3)[nH]c2c1 reaches 80% or more?
1 (yes)

Could you tell me if the measured inhibition at 0.01 µM of O=C(/C=C/c1ccc2c(c1)OCO2)N1CCC[C@@H](CN2CCC(c3noc4cc(F)ccc34)CC2)C1 reaches 80% or more?
1 (yes)

Could you tell me if the measured inhibition at 0.01 µM of Cc1ccc2nc(C(=O)N3CCC[C@H]3CCN3CCC(C(=O)c4ccc(F)cc4)CC3)[nH]c2c1 reaches 80% or more?
1 (yes)

====

# inhibition at 0.001 µM per entry
Molecular target: human 5-HT2A receptor (Homo sapiens, UniProt P28223)
Construct: expressed in transfected cells; host or cells: CHO cells (membrane preparation)
Experiment: Serotonin 5-HT2A receptor binding assay ([3H]-ketanserin)
Settings: 1 nM test drug; [3H]-ketanserin 1 nM; human 5-HT2A receptor-expressing CHO cell membrane; read-out: BINDING INHIBITION RATE (%) 5HT2A 1 nM
Field: numeric (%). Do not append units.

Observe how each entry below is paired with its result.
O=C(c1nc2cc(Cl)ccc2[nH]1)N1CCCC[C@H]1CCN1CCC(c2c[nH]c3ccccc23)CC1 = 74
COc1ccc2[nH]c(C(=O)N3CCCC[C@H]3CCN3CCC(c4coc5ccccc45)CC3)cc2c1 = 77
Cc1cc2c3c(c1)cc(C(=O)N1CCC[C@H]1CCN1CCC(C(=O)c4ccc(F)cc4)CC1)n3CCC2=O = 48
O=C(c1ccc(F)cc1)C1CCN(C[C@H]2CCCN(C(=O)c3cc4ccc(Cl)cc4[nH]3)C2)CC1 = 84
O=C(c1ccc(F)cc1)C1CCN(CC[C@@H]2CCCN2C(=O)c2cc3c(F)cccc3[nH]2)CC1 = 61
Cc1ccc2cc(C(=O)N3CCC[C@H]3CCN3CCC(N4CCc5cc(F)ccc54)CC3)[nH]c2c1 = 65

// switching to the query compound
Quick check: inhibition at 0.001 µM of CC(C)c1ccc2cc(C(=O)N3CCC[C@H]3CCN3CCC(C(=O)c4ccc(F)cc4)CC3)[nH]c2c1 ?
69

====

# inhibition at 0.001 µM per entry
Target: human 5-HT2A receptor (Homo sapiens)
Construct: expressed in transfected cells; host or cells: CHO cells (membrane preparation)
Experiment: Serotonin 5-HT2A receptor binding assay ([3H]-ketanserin)
Settings: 1 nM test drug; [3H]-ketanserin 1 nM; human 5-HT2A receptor-expressing CHO cell membrane; read-out: BINDING INHIBITION RATE (%) 5HT2A 1 nM
Please append the unit to your numeric answer.

Observe how each entry below is paired with its result.
Cc1ccc2cc(C(=O)N3CCC[C@H]3CCN3CCC(C(=O)c4ccc(F)cc4)CC3)[nH]c2c1 [Example 1] = 73%
Cc1ccc2nc(C(=O)N3CCC[C@H]3CCN3CCC(C(=O)c4ccc(F)cc4)CC3)[nH]c2c1 [Example 59] = 58%

Param readout= inhibition at 0.001 µM; system= human 5-HT2A receptor (Homo sapiens); entry= COc1ccc2cc(C(=O)N3CCOC[C@H]3CCN3CCC(c4noc5cc(F)ccc45)CC3)[nH]c2c1 [Example 15] ; returns value.
76%
